This collection of values is drawn from the DeepSol protein solubility set.

Assay: soluble on expression in E. coli; label from the status in PepcDB or PDB records
measured attribute: soluble on expression in E. coli

Solved cases below.
sequence string	val
MASIKKVYRGMKNGAETINDDLEAINSELTSGGNVVHKTGDETIAGKKTFTGNVEVNGSLTLPTKSWSGELGGGIILSLRKKGTTVEYSIGGEISSSILANSNLVNRSVPNEFCPRNRCSLVGHMVGGWNAFHIDIPSSGVCQWFGPTASSGTPRGTGTYPIDHHHHHH	soluble
MGSDKIHHHHHHMKLVKTGILPLDTQLGGGMPAGSVVSVFEEPGAGADVLSYHFTVEGATHGENVFYLATDDSSEEIREYINLYFDLDEAVWENITLLSLRASMQQEEGEKDAKDFLRKTIYDPIGGIKTILSHEEFERVVINNFTYFLANYPIEDVIALIDVLSNYAKRNQSVVMLLVTKGMFDPRTETTVKHYSDGVIELTLKEVENEVQRRLKVVKFKGILVPKAILRYELTDKGIKMESVMRVL	not soluble
MTYELCLEYGTYPLSRVDAYWGEDQNPPTFIQEDRLLCHKLETMNHLFHDLFVTIESQFHYVGFNMPEKRAQIRILYQEVATILKSKYKDYPIKIETFLL	not soluble
MYQETKQFYHLWLLAVQERDEAREHLKQSLVELSRLQECFNTILLSEDQQIPHYSYSETTDETPDHQKLYSYNNFSNESPSRFSSASSIDLVSNSTVYSSPETYDSDCYSLRTLQMGFAFEEKKDFETLVLENIGLGRMLPENGKFQQAIIEAGSLVDSLFITGPIPKWRNPPVQMLSQRPLLSHSIGKWNYGGQGIINRSFSGKMPRLSLMP	soluble
MESTLSLQANLYPRLTPAGAFYAVSSDAPSAGKTLLHSLLKADADEMVSSEKLLTWADTADIDTALNLLYRLQKLEFLYGDENGHSDGINLSDEQLPLLMEQLSGSGKALLVDRNGLYLANANFHHEAAEELGLLAAEVAQMEKKYRLLIKNNLYINNNAWGVCDPSGQSELTFFPLYIGSTKFILVIGGIPDLGKEAFVTLVRILYRRYSNRV	not soluble
MKTTYNRWWKKKVWFGRKDMSYKVIVDSCGEFTPEMKADGGFEHVALGIQIEDTQWTDDDSLKQEELLLKIAESTSCAKTSCPSPERYMESYHCDAERIYVVTLSAELSGSYNSAVLGKNLYEEEYGEKQIHVFNSRSASVGETLIALKVQQCEKAGMTFEEVVESVECYIEEQHTYFVLENLDTLRKNGRLTGIKSLVAGALNIKPIMGSTPQGTICQKEKARGMKKALVKMADCVAADVVNAGDKILAIAHCNCEERAKEVQRLLKERFAVKSSFIVDTSGISTVYANDGGIIVVV	soluble

Ask: Which measured soluble on expression in E. coli value corresponds to MIIIMAGGKSSRMGREKPVLKIAGKEMLLWVYEQAEAVGEVLVALSRHTPRTRELCLREGIEFVDTPGRGYVKDVQWLLREFGPFISLSSDIPFVKSSDIYSLLKEFDGKVSLTGVLPLEVVPKDLTPYSYMGYAIVGINGVAKEGEKFFVFSNPLLALNVNTPRELELAKRVAEIIRVRGIR ?
Reply: soluble

====

Experiment: soluble on expression in E. coli; label from the status in PepcDB or PDB records
measured attribute: soluble on expression in E. coli

sequence string	val
PGYLNDIPRHGMFVKDLILLVNDTAAVAYDPMENECYLTALAEQIPRNHSSIVTQQNQVYVVGGLYVDEENKDQPLQSYFFQLDNVSSEWVGLPPLPSARCLFGLGEVDDKIYVVAGKDLQTEASLDSVLCYDPVAAKWSEVKNLPIKVYGHNVISHNGMIYCLGGKTDDKKCTNRVFIYNPKKGDWKDLAPMKTPRSMFGVAIHKGKIVIAGGVTEDGLSASVEAFDLKTNKWEVMTEFPQERSSISLVSLAGSLYAIGGFAMIQLESKEFAPTEVNDIWKYEDDKKEWAGMLKEIRYASGASCLATRLNLFKLSKL	soluble
MNDVDVLVVGAGALGLACAARLAEAGHGVLVAERERLVGSHTSSRNSEVIHAGLYYPPGSLKADLCLEGRERLYAWCARHGVGHRRIGKLLVAVEENERERLQALAANARACGVDDLMPLDGTTLRALEPQVRGVAALLSPSTGIIDSHAYLQSLQAVAERHGAQLALDTRVDRLERHAGGWRAEGQSVGEAFRLRAGWVVNAGGLFAQALAQRTEGLDPRLVPALHLCQGRYFSYSGRSPFRHLVYPMPEARTAGLGIHATLDLGGQLRFGPDVNYVDNLDYRVDESLRPAFAQVISRYFPGIDPRRLAAGYAGIRPKLGGPGEPAADFIIQTPAEHGLPGLVNLFGIESPGLTASLALAERVARALLEHHHHHH	not soluble
MISDSKLLASAAWDAQSLNELKAKASEDPAANIRPVARQVEGMFVQMMLKSMRDALPKDGLFSSEHTRLYTSMYDQQIAQQMTAGKGLGLAEMMVKQMTPEQPLPEESTPAAPMKFPLETVVRYQNQTLSQLVQKAVPRNYDDSLPGDSRAFLAQLSLPAQLASQQSGVPHHLILAQAALESGWGQRQIRRENGEPSYNLFGVKASGNWKGQVTEITTTEYENGEAKKVKAKFRVYSSYLEALSDYVGLLTRNPRYAAVTTAASAEQGAQVLQDAGYATDPHYARKLTNMIQQMKSISDKVSKTYSMNIDNLF	not soluble
VVCREASHAGSWYTASGPQLNAQLEGWLSQVQSTKRPARAIIAPHAGYTYCGSCAAHAYKQVDPSITRRIFILGPSHHVPLSRCALSSVDIYRTPLYDLRIDQKIYGELWKTGMFERMSLQTDEDEHSIEMHLPYTAKAMESHKDEFTIIPVLVGALSESKEQEFGKLFSKYLADPSNLFVVSSDFCHWGQRFRYSYYDESQGEIYRSIEHLDKMGMSIIEQLDPVSFSNYLKKYHNTICGRHPIGVLLNAITELQKNGMNMSFSFLNYAQSSQCRNWQDSSVSYAAGALTVH	soluble
MSLISPIIRLSHVTFQTSSAARVIKEFVTKYQFHPFAARGLDGGSPCQVALKNGGVVFMVNENTPKTHENSVLLYDFPLQIPFPDTACNVTFEVEDVSGLYHHLVDEGCQLLLPPTELHDDFGSVTYCIVKSVVGNVSHTLIDRTHYRSSFLPGFEYLKNSTHNLSSGNMTEGHHHHHH	not soluble
MGSDKIHHHHHHMKIVYCIAGTYNSGGMERVLANKANYLVSHGYEVVIITTDQREKQSFFELDQRINCCDLRINYEENNGKSFLNKLANYPFKQWKHRKRLTACLKQLKADIVVSMFCNDASFLWKIDDGSKKVLEIHFSRYKRLQYGRKGVWKIADRWRSRMDERTVRKYDRFVVLTAEDKAYWGNLSNMIVIPNALSHSTTELHLSPLTARKVIAIGRYGYQKGFDYLIEAWEIIHCAQPAWTLDIIGDGEWTDRLQRQIKRKRLNHCVFLKPPTGQIEEEYRQASLLVLSSRYEGLPMVLLEAQSFGLPIVSFACKCGPGDVITDGKNGFLVSVGNLPMLADRIMRLMEDEGLRKRMGMNAYHNSKTFSEERIMQCWIDMFDKLVSQR	not soluble
MSLKIIAFYLPQFHQIKENDRWWGKGFTEWTNTKSAQPLFSGHYQPREPYQDFYYDLTTPSVRKWQAEIAKAYGIYGFCYYHYWFKGKRLLETPFNEVLKMKEPDFPFCLSWANEPWTKSWDGLDKHILMPQDYGDISDWKEHFDYLLQAFQDERYIYIDDKPLFIIYRPGHIPDCEKMLNYWNALARENGLKGIYFAETLNSFPLPNINGFDASIQFEPFYTIAHDSSSDINKVIYDSDMQLNVWDYDKVWMYILQRSLPKKKTFPGAFVDWDNTARRKNANSSIFVGSTPEKFTIYLSKQIHRTYSFYNSEFLFINAWNEWAEGTYLEPDKKYGFSYLEGVKNAIDRGMKAYKKDEGHHHHHH	soluble
PGTESTFSNCYALNVEVVSLDSGDQAVLGGFVGQVSANFIAKHCYVSAKVTGGKNPGAFVGMTADESMNCKYDGCFYNNEQNP	not soluble
MEEPVLDFQFVHRKIHTGQIAAFDIIARLVPIKNIRGNDFDDRPAAAVFGMHNLQTRPVARHFEGGADFTQLIVLTLGQPESAYVAVRLKIVRGDISRGGVGKLTGKQSHT	not soluble
MDYVCSVVFICQSFDLIINRRVISFKKNSLFIVSDKIRRELPVCPSKLRIVDIDKKTCLSFFIDVNNELPGKFTLDKNGYIAEEEPPLSLVFSLFEGIKIADSHSLWLKERLCISLLAMFKKRESVNSFILTNINTFTCKITGIISFNIERQWHLKDIAELIYTSESLIKKRLRDEGTSFTEILRDTRMRYAKKLITSNSYSINVVAQKCGYNSTSYFICAFKDYYGVTPSHYFEKIIGVTDGINKTID	not soluble

We now examine a further sequence.
Ask: Which measured soluble on expression in E. coli value corresponds to MSPGERFLDWLKRLQGQKAWTAARAAFRRSLAFPPGAYPRAMPYVEPFLAKGDWRQEEREAHYLVAALYALKDGDHQVGRTLARALWEKAQGSASVEKRFLALLEADRDQIAFRLRQAVALVEGGIDFARLLDDLLRWFSPERHVQARWAREYYGAGASEEEKKKEVEA ?
Reply: soluble
